Biological target: FGFR2 K659M (Homo sapiens, UniProt P21802, K659M)
Construct: P41212 (Transcription factor ETV6)
Sequence (P21802 481-770 K659M limits assumed): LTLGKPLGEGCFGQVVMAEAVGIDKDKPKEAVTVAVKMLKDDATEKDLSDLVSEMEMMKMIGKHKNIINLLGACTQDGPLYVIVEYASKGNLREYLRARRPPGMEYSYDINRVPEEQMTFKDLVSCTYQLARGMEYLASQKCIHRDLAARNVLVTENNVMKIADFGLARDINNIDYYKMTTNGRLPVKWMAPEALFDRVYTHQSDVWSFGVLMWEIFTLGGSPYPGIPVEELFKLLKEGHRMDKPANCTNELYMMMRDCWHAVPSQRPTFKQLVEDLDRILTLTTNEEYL
Assay: Cell proliferation assay for Tel-FGFR2 K659M in BaF3
Format: cell-based
Details: BaF3 cells expressing FGFR2 K659M fusion, 48 hrs, CellTiter Glo
Description: By transfection, cell strains of the intracellular kinase domain fusion protein of TEL-FGFR2 WT or the intracellular domain fusion proteins containing FGFR2 V564, V564F, V564L, N549K and K659M mutations were stably expressed in Baf cells. […] Then relative light units (RLUs) were measured on a microplate reader with a luminescence detection module. […]
Measured parameter: IC50

C=CC(=O)N1CC[C@H](n2cc(C#Cc3ccc4oc(C5CC5)nc4c3)c3c(N)ncnc32)C1; 0.5 to 5 nM
C=CC(=O)N1CC[C@H](n2nc(C#Cc3ccc4oc(C5CC5)nc4c3)c3c(N)ncnc32)C1; 5 to 50 nM
C=CC(=O)N1CC[C@H](n2nc(C#Cc3c(F)cc4oc(N5CCC5)nc4c3F)c3c(N)ncnc32)C1; 5 to 50 nM

# next molecule below
## Task API: value(readout= IC50, system= FGFR2 K659M (Homo sapiens, UniProt P21802, K659M), query= C=CC(=O)N1C[C@@H](n2nc(C#Cc3c(F)cc4sc(N5CCC5)nc4c3F)c3c(N)ncnc32)C[C@@H]1COC )
## Result 5 to 50 nM

###

molecular target: FGFR2 V564F (Homo sapiens, UniProt P21802, V564F); construct: P41212 (Transcription factor ETV6); assay: Cell proliferation assay for Tel-FGFR2 V564F in BaF3; format: cell-based; conditions: BaF3 cells expressing FGFR2 V564F fusion, 48 hrs, CellTiter Glo
Sequence (P21802 481-770 V564F limits assumed): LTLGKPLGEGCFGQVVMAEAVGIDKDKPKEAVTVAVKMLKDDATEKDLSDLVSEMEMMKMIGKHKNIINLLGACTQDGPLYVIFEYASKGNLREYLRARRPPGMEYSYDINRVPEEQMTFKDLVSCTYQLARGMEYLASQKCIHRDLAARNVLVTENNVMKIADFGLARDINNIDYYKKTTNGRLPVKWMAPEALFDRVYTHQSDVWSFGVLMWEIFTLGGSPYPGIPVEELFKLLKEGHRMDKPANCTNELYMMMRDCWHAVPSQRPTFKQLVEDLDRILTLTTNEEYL
Measured parameter: IC50

// below: answered compounds
C=CC(=O)N1CC[C@H](n2cc(C#Cc3c(F)cc4sc(C)nc4c3F)c3c(N)ncnc32)C1; 0.5 to 5 nM
C=CC(=O)N1CCC(c2cc(C#Cc3ccc4sc(C)nc4c3)c3c(N)ncnn23)C1 (stereo not shown); 0.5 to 5 nM
C=CC(=O)N1C[C@@H](n2nc(C#Cc3c(F)cc4sc(N5CCC5)nc4c3F)c3c(N)ncnc32)C[C@@H]1COC; ≤ 0.5 nM

I'm hoping you can list IC50 for every compound here, please.
1. C=CC(=O)N1CC[C@H](n2cc(C#Cc3ccc4oc(CC)nc4c3)c3c(N)ncnc32)C1
2. C=CC(=O)N1CC[C@H](n2cc(C#Cc3c(F)cc4sc(C5CC5)nc4c3F)c3c(N)ncnc32)C1
3. C=CC(=O)N1CC[C@H](n2nc(C#Cc3ccc4oc(C5(C)CC5)nc4c3)c3c(N)ncnc32)C1
4. C=CC(=O)N1CC[C@H](n2cc(C#Cc3ccc4sc(C5CC5)nc4c3)c3c(N)ncnc32)C1

## Result
1: 0.5 to 5 nM; 2: ≤ 0.5 nM; 3: 0.5 to 5 nM; 4: 0.5 to 5 nM

###

biological target: FGFR2 K659M (Homo sapiens, UniProt P21802, K659M); construct: P41212 (Transcription factor ETV6); experiment: Cell proliferation assay for Tel-FGFR2 K659M in BaF3; assay type: cell-based; conditions: BaF3 cells expressing FGFR2 K659M fusion, 48 hrs, CellTiter Glo
Measured parameter: IC50

C=CC(=O)N1C[C@@H](n2nc(C#Cc3c(F)cc4sc(C5CC5)nc4c3F)c3c(N)ncnc32)C[C@@H]1COC [Example 68]; 0.5 to 5 nM
C=CC(=O)N1CC[C@H](n2nc(C#Cc3cc4nc(C5(F)CC5)oc4cc3F)c3c(N)ncnc32)C1 [Example 36]; 0.5 to 5 nM
C=CC(=O)N1CC[C@H](n2cc(C#Cc3ccc4sc(C)nc4c3)c3c(N)ncnc32)C1 [Example 42]; 5 to 50 nM
CN(C)C/C=C/C(=O)N1CC(n2nc(C#Cc3c(F)cc4oc(N5CCC5)nc4c3F)c3c(N)ncnc32)C1 [Example 77]; 5 to 50 nM

I'm hoping you can list IC50 for every compound here, please.
1. CN(C)C/C=C/C(=O)N1CC(n2nc(C#Cc3c(F)cc4sc(C5CC5)nc4c3F)c3c(N)ncnc32)C1 [Example 78]
2. C=CC(=O)N1CC[C@H](n2nc(C#Cc3c(F)cc4sc(C5CC5)nc4c3F)c3c(N)ncnc32)C1 [Example 62]

## Result
1. 5 to 50 nM
2. 5 to 50 nM

## Task Could you share which IC50 value was measured for C=CC(=O)N1CC[C@H](n2cc(C#Cc3c(F)cc4sc(C)nc4c3F)c3c(N)ncnc32)C1 [Example 75] ?
## Result 0.5 to 5 nM

###

Biological target: FGFR2 V564F (Homo sapiens, UniProt P21802, V564F)
Construct: P41212 (Transcription factor ETV6)
Test: Cell proliferation assay for Tel-FGFR2 V564F in BaF3
Assay type: cell-based
Settings: BaF3 cells expressing FGFR2 V564F fusion, 48 hrs, CellTiter Glo
Experimental: By transfection, cell strains of the intracellular kinase domain fusion protein of TEL-FGFR2 WT or the intracellular domain fusion proteins containing FGFR2 V564, V564F, V564L, N549K and K659M mutations were stably expressed in Baf cells. […] Then relative light units (RLUs) were measured on a microplate reader with a luminescence detection module. […]
Measured parameter: IC50

// below: answered compounds
C=CC(=O)N1CC[C@H](n2nc(C#Cc3c(F)cc4oc(N5CCC5)nc4c3F)c3c(N)ncnc32)C1; ≤ 0.5 nM
C=CC(=O)N1CC[C@H](n2nc(C#Cc3cc4nc(C)sc4cc3F)c3c(N)ncnc32)C1; ≤ 0.5 nM
C=CC(=O)N1CC[C@H](n2nc(C#Cc3cc4nc(C5CC5)sc4cc3F)c3c(N)ncnc32)C1; 0.5 to 5 nM
C=CC(=O)N1CC[C@H](n2cc(C#Cc3ccc4sc(CC)nc4c3)c3c(N)ncnc32)C1; 0.5 to 5 nM

I'm hoping you can list IC50 for every compound here, please.
1. C=CC(=O)N1CC[C@H](n2cc(C#Cc3cc4nc(C5CC5)oc4cc3F)c3c(N)ncnc32)C1
2. C=CC(=O)N1CC[C@H](n2nc(C#Cc3cc4nc(NC)oc4cc3F)c3c(N)ncnc32)C1
3. C=CC(=O)N1CC[C@H](n2nc(C#Cc3ccc4oc(C5CC5)nc4c3)c3c(N)ncnc32)C1

## Result
1: ≤ 0.5 nM; 2: 0.5 to 5 nM; 3: 0.5 to 5 nM

## Task Could you share which IC50 value was measured for C=CC(=O)N1CC[C@H](n2nc(C#Cc3ccc4sc(C5CC5)nc4c3)c3c(N)ncnc32)C1 ?
## Result 0.5 to 5 nM

###

biological target: FGFR2 V564L (Homo sapiens, UniProt P21802, V564L); construct: P41212 (Transcription factor ETV6); experiment: Cell proliferation assay for Tel-FGFR2 V564L in BaF3; format: cell-based; details: BaF3 cells expressing FGFR2 V564L fusion, 48 hrs, CellTiter Glo
Sequence (P21802 481-770 V564L limits assumed): as the sequence (P21802 481-770 K659M limits assumed) above, with V84L, M179K counted along it
I'd appreciate it if you could supply IC50 values for the items below.

C=CC(=O)N1CC[C@H](n2nc(C#Cc3ccc4sc(C5CC5)nc4c3)c3c(N)ncnc32)C1; 0.5 to 5 nM
C=CC(=O)N1CC[C@H](n2cc(C#Cc3ccc4sc(C)nc4c3)c3c(N)ncnc32)C1; 0.5 to 5 nM
C=CC(=O)N1CC[C@H](n2nc(C#Cc3ccc4sc(C(F)F)nc4c3)c3c(N)ncnc32)C1; 5 to 50 nM
C=CC(=O)N1CC[C@H](n2cc(C#Cc3ccc4oc(NC)nc4c3)c3c(N)ncnc32)C1; 5 to 50 nM
CN(C)C/C=C/C(=O)N1CC(n2nc(C#Cc3c(F)cc4sc(C5CC5)nc4c3F)c3c(N)ncnc32)C1; 0.5 to 5 nM
C=CC(=O)N1CC[C@H](n2nc(C#Cc3ccc4sc(CC)nc4c3)c3c(N)ncnc32)C1; 0.5 to 5 nM

# next compound below
## Task Could you share which IC50 value was measured for CN(C)C/C=C/C(=O)N1CC(n2nc(C#Cc3c(F)cc4oc(N5CCC5)nc4c3F)c3c(N)ncnc32)C1 ?
## Result 0.5 to 5 nM

###

target: FGFR3 V555M (Homo sapiens, UniProt P22607, V555M); construct: P41212 (Transcription factor ETV6); assay: Cell proliferation assay for FGFR3 V555M in BaF3; format: cell-based; details: BaF3 cells expressing FGFR3 V555M fusion, 48 hrs, CellTiter Glo
Sequence (P22607 472-761 V555M limits assumed): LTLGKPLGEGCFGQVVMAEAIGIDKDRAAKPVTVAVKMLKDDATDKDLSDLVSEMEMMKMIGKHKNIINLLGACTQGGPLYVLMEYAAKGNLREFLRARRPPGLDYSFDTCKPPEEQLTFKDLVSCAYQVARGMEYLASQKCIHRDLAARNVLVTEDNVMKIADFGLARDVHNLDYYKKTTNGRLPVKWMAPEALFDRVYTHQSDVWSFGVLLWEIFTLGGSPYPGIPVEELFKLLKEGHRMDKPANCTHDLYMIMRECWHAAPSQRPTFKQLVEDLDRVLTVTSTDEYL
Measured parameter: IC50

// below: answered compounds
C=CC(=O)N1CC[C@H](n2nc(C#Cc3c(F)cc4sc(C5CC5)nc4c3F)c3c(N)ncnc32)C1; 0.5 to 5 nM
C=CC(=O)N1CC[C@H](n2nc(C#Cc3cc4nc(NC)oc4cc3F)c3c(N)ncnc32)C1; 5 to 50 nM
C=CC(=O)N1C[C@@H](n2nc(C#Cc3c(F)cc4sc(C5CC5)nc4c3F)c3c(N)ncnc32)C[C@@H]1COC; ≤ 0.5 nM
C=CC(=O)N1CC[C@H](n2cc(C#Cc3c(F)cc4sc(C)nc4c3F)c3c(N)ncnc32)C1; 0.5 to 5 nM
C=CC(=O)N1CC[C@H](n2nc(C#Cc3ccc4sc(C)nc4c3)c3c(N)ncnc32)C1; 5 to 50 nM

I'm hoping you can list IC50 for every compound here, please.
1. C=CC(=O)N1CC[C@H](n2nc(C#Cc3cc4nc(N(C)C)oc4cc3F)c3c(N)ncnc32)C1
2. C=CC(=O)N1C[C@@H](n2nc(C#Cc3c(F)cc4sc(N5CCC5)nc4c3F)c3c(N)ncnc32)C[C@@H]1COC

## Result
["5 to 50 nM", "≤ 0.5 nM"]

I'm hoping you can list IC50 for every compound here, please.
1. C=CC(=O)N1CCC(c2cc(C#Cc3ccc4oc(C5CC5)nc4c3)c3c(N)ncnn23)C1 (centres unmarked)
2. C=CC(=O)N1CC[C@H](n2cc(C#Cc3ccc4sc(CC)nc4c3)c3c(N)ncnc32)C1
3. C=CC(=O)N1CC[C@H](n2nc(C#Cc3ccc4sc(C5CC5)nc4c3)c3c(N)ncnc32)C1
4. C=CC(=O)N1CC[C@H](n2nc(C#Cc3cc4nc(C5CCC5)oc4cc3F)c3c(N)ncnc32)C1
5. C=CC(=O)N1CC[C@H](n2cc(C#Cc3ccc4oc(C(F)(F)F)nc4c3)c3c(N)ncnc32)C1

## Result
1: 5 to 50 nM; 2: 5 to 50 nM; 3: 5 to 50 nM; 4: 5 to 50 nM; 5: 50 to 500 nM

I'm hoping you can list IC50 for every compound here, please.
1. C=CC(=O)N1CC[C@H](n2cc(C#Cc3c(F)cc4sc(C5CC5)nc4c3F)c3c(N)ncnc32)C1
2. C=CC(=O)N1CC[C@H](n2nc(C#Cc3ccc4oc(C5CC5)nc4c3)c3c(N)ncnc32)C1

## Result
["0.5 to 5 nM", "0.5 to 5 nM"]
